We begin with a simple list: items and their reported growth.
Tested on: NCI-H460 lung
Test: NCI-60 one-dose screen, 48 h (100 = growth as untreated, 0 = no growth, -100 = all killed)
Details: 10 µM unless noted
This is part of a sample that, as a whole, favours compounds with a hit. Of some 83,000 tested, about 20% had one in any assay.

Compound	Target entity	growth (%)
CCc1c(C)c2ccc(OCC(=O)N=Nc3c(O)[nH]c4ccccc34)c(C)c2oc1=O	NCI-H460 lung	-46.7
Cc1ccccc1-n1c(C)nc2cc(NC(=O)c3ccc(Cl)cc3)ccc2c1=O	NCI-H460 lung	72.4
Cc1c(O)c(N=Nc2ccc(C(=O)O)c(O)c2)c2ccccc2c1O	NCI-H460 lung	96.7
COc1ccc(OC)c(Cn2cc3c(c2)-c2oncc2CC3)c1	NCI-H460 lung	14.1
COC(=O)/C=C/c1cc(O)c2oc(-c3ccc(O)c(O)c3)c(C(=O)OC)c2c1	NCI-H460 lung	29.1
COc1cc(-c2nn(-c3ccc(NC(=O)c4cc(Cl)cc(Cl)c4)cc3)cc2-c2ccncc2)ccc1Cl	NCI-H460 lung	54.8
CC1=C[C@@H]2c3c(c(O)c(O)c4oc5cc(O)cc(O)c5c(=O)c34)[C@@H](c3cc(O)c(O)c4oc5cc(O)cc(O)c5c(=O)c34)[C@@H]2C(C)(C)C1	NCI-H460 lung	-28.3
COc1ccc2nc3cc(Cl)ccc3c(NCCCNC(C)=O)c2c1	NCI-H460 lung	7.26
CC(CCN1CCN(CCC(C)CC(C)(C)C)C1CC(C)CC(C)(C)C)CC(C)(C)C (stereo unspecified)	NCI-H460 lung	101
COC(=O)c1ccc2[nH]c(O)c(C(=Nc3ccc(N(C)C(=O)CN4CCN(C)CC4)cc3)c3cccc(OC)c3)c2c1	NCI-H460 lung	7.31
COc1cc(CNC(=O)CCCC/C=C/C(C)C)ccc1OCc1nnc(Nc2ccccc2F)o1	NCI-H460 lung	80.3
O=c1c(N=Nc2nccs2)c(-c2ccccc2)[nH]n1-c1nc(-c2ccccc2)cs1	NCI-H460 lung	22.5
COc1cc(N2C(=O)C=CC2=O)ccc1N1C(=O)C=CC1=O	NCI-H460 lung	104
Nc1nc2cc(O)ccc2n2cc3c(F)cccc3c12	NCI-H460 lung	2.35
COC(=O)C(N)CC(C)C (stereo unspecified)	NCI-H460 lung	108
COC1(OC)N=C(N)C2(C#N)C3(C(=O)Nc4ccccc43)C12C#N (stereo unspecified)	NCI-H460 lung	104
Cc1cc2cn3c4ccc(O)cc4nc(N)c3c2cc1C	NCI-H460 lung	-36.1
CC(=O)/C(=C/c1ccc(-c2ccccc2)cc1)C(=O)c1ccccc1	NCI-H460 lung	99.8
c1cc[c]([Bi]([c]2ccccc2)[c]2ccccc2)cc1	NCI-H460 lung	96.2
CCOC(=O)CCCCCCCCC(=O)OCC	NCI-H460 lung	108
O=C(CBr)OCc1ccc([N+](=O)[O-])o1	NCI-H460 lung	91.6

----------
Test system: NCI-H322M lung
Test: NCI-60 one-dose screen, 48 h (100 = growth as untreated, 0 = no growth, -100 = all killed)
Settings: 10 µM unless noted
This is part of a sample that, as a whole, favours compounds with a hit. Of some 83,000 tested, about 20% had one in any assay. Active and inactive are the calls of the source. Rule for the calls: active = growth percent below 10; inactive = the rest.
We begin with a simple list: items and their reported growth.

Compound	growth
CCCC(CCC)Oc1ccc(CCCC2=C(O)c3ccccc3C(=O)C2=O)cc1	-1.08% (active)
CCCCN(CCCC)c1ccc(C(=O)O)cc1	98.4% (inactive)
CCOC(=O)NNc1[nH]c(-c2ccc(OC)cc2)cc1C#N	79.4% (inactive)
COc1ccc(C(=O)CN2C(=O)NC(c3ccccc3)(c3ccccc3)C2=O)cc1	110% (inactive)
COc1ccc2c(c1)/C(=C1/S/C(=N/c3nnc(C)s3)NC1=O)C(=O)N2Cc1ccc(Br)cc1	35.1% (inactive)
CC#Cc1nc(Nc2cc(C)[nH]n2)c2ccccc2n1	9.12% [100 µM] (active)
O=C(O)COc1ccc([N+](=O)[O-])cc1Cl	99.8% (inactive)
CC(C)(C)C(=O)OCOP(=O)(OCOC(=O)C(C)(C)C)C1CC(O)N(O)C1=O (stereo unspecified)	30.5% (inactive)
COc1cc2ncnc(Nc3ccc4c(cnn4C(=O)Nc4ccccc4)c3)c2cc1OC	81.1% (inactive)
C/C=C(/C)C(=O)OC1C=C(CO)C(=O)C(OC(=O)C(C)(O)C(C)Cl)C1C(C)C (stereo unspecified)	-10.6% (active)
CCOC(=O)CCCCCCCCC(=O)OCC	97.6% (inactive)
